- system: LRRK2 (G2019S) (Homo sapiens, UniProt Q5S007, G2019S)
- Construct: Recombinant GST-LRRK2 (delta970), purified from baculovirus infected insect cells (SF9); GST (N)
- Sequence (Q5S007 970-2527 G2019S limits assumed): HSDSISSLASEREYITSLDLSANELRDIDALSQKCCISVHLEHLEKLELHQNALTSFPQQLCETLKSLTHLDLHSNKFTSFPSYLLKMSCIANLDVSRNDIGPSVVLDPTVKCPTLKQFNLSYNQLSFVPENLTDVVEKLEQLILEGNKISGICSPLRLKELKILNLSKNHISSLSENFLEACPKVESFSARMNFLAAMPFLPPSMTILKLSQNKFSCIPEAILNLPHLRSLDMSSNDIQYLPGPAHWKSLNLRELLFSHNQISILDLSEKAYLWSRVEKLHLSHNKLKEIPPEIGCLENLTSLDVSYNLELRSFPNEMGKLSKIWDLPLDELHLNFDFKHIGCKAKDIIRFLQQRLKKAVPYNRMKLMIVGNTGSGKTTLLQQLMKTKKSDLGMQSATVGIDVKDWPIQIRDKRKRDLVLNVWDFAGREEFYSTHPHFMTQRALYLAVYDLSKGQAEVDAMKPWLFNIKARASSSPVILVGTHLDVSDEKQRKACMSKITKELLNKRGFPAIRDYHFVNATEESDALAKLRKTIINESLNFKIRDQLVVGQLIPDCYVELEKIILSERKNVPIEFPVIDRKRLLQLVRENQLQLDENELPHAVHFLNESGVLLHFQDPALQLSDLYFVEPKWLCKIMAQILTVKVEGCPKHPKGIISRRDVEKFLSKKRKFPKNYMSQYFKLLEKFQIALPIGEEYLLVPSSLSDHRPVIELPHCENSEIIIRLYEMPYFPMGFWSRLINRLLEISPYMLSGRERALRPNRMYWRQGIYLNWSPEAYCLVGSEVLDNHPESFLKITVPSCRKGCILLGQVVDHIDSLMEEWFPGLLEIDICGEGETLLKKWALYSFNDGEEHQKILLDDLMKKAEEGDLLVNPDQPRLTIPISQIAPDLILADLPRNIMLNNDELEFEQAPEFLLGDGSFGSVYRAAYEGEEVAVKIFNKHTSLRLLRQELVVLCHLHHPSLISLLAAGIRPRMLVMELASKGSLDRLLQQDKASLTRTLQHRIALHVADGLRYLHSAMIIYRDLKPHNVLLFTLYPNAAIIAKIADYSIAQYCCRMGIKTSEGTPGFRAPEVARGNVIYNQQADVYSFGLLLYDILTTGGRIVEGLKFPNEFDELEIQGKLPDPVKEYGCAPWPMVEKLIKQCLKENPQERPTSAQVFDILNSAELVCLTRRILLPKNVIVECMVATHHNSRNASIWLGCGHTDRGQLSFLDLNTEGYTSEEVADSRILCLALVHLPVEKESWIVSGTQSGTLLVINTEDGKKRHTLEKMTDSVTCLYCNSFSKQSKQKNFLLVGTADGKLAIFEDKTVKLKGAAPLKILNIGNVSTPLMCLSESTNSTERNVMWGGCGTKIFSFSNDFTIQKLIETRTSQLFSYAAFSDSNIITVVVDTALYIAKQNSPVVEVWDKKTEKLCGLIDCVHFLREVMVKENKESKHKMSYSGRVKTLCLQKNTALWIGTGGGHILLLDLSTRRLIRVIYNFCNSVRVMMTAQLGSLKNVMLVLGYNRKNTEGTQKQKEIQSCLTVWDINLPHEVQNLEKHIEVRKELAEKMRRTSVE
- assay_procedure: LRRK2 inhibition, radiometric kinase assay with recombinant GST-LRRK2 (delta970) and peptide substrate
- test_context: GST-LRRK2 (delta970) G2019S 30 nM, ATP ~52 μM (Km), 30 min at 30° C.
pIC50: −log10 of the molar value.
# reported pIC50; entries follow

IN: Tell me the measured pIC50 of CCC(Sc1ccc2nnc(-c3ccc(Cl)s3)n2n1)C(=O)N1CCCC1 (stereo not drawn) , please.
OUT: 6.00 to 7.00

IN: Next: `Cc1ccc(-c2nnc3ccc(SCC(N)=O)nn23)s1`
OUT: 6.00 to 7.00

IN: Next: `NC(=O)CS(=O)(=O)c1ccc2nnc(-c3cccs3)n2n1`
OUT: 5.30 to 6.00

IN: Next: CCC(Sc1ccc2nnc(-c3cccc(OC)c3)n2n1)C(N)=O (stereo not drawn)
OUT: 6.00 to 7.00

IN: Next: CCCC(Sc1ccc2nnc(-c3cccs3)n2n1)C(=O)N1CCCCC1 (stereo not drawn)
OUT: 6.00 to 7.00

----------
- system: LRRK2 (G2019S) (Homo sapiens, UniProt Q5S007, G2019S)
- Construct: Recombinant GST-LRRK2 (delta970), purified from baculovirus infected insect cells (SF9); GST (N)
- assay_procedure: LRRK2 inhibition, radiometric kinase assay with recombinant GST-LRRK2 (delta970) and peptide substrate
- test_context: GST-LRRK2 (delta970) G2019S 30 nM, ATP ~52 μM (Km), 30 min at 30° C.
# reported IC50; entries follow

CC(Sc1ccc2nnc(-c3ccnn3C)n2n1)C(=O)N1CCCCC1 (stereo not shown) = ≥ 5000 nM
CCC(Sc1ccc2nnc(-c3nccs3)n2n1)C(=O)N1CCCCC1 (stereo not shown) = 100 to 1000 nM
CCC(Sc1ccc2nnc(-c3cccs3)n2n1)C(=O)Nc1ccccc1 (stereo not shown) = ≥ 5000 nM
NC(=O)CSc1ccc2nnc(C3CCCC3)n2n1 = 1000 to 5000 nM
CCOC(=O)C(CC)Sc1ccc2nnc(-c3cccc(OC)c3)n2n1 (stereo not shown) = 1000 to 5000 nM

IN: Tell me the measured IC50 of CCOC(=O)C(CC)Sc1ccc2nnc(-c3ccc(OC)cc3)n2n1 (stereo not shown) , please.
OUT: ≥ 5000 nM

IN: Next: CCC(Oc1ccc2nnc(-c3cccs3)n2n1)C(=O)N1CCCCC1 (stereo not shown)
OUT: ≥ 5000 nM

IN: Next: `NC(=O)CSc1ccc2nnc(-c3cccs3)n2n1`
OUT: 100 to 1000 nM

IN: Next: CCc1ccc(-c2cnc3ccc(SC(CC)C(=O)O)nn23)s1 (stereo not shown)
OUT: 1000 to 5000 nM

IN: Next: CCC(Sc1ccc2nnc(-c3nccs3)n2n1)C(=O)O (stereo not shown)
OUT: 100 to 1000 nM

----------
- system: LRRK2 (G2019S) (Homo sapiens, UniProt Q5S007, G2019S)
- Construct: Recombinant GST-LRRK2 (delta970), purified from baculovirus infected insect cells (SF9); GST (N)
- assay_procedure: LRRK2 inhibition, radiometric kinase assay with recombinant GST-LRRK2 (delta970) and peptide substrate
- test_context: GST-LRRK2 (delta970) G2019S 30 nM, ATP ~52 μM (Km), 30 min at 30° C.
# reported IC50; entries follow

Known IC50 results, listed for orientation:
CC(Sc1ccc2nnc(-c3ccn[nH]3)n2n1)C(=O)N1CCCCC1 (stereo not drawn) = 0.1 to 1 µM
CC(Sc1ccc2nnc(-c3ccn(C)n3)n2n1)C(=O)N1CCCCC1 (stereo not drawn) = 0.1 to 1 µM
CCC(Sc1ccc2nnc(-c3ccc(F)cc3)n2n1)C(=O)Nc1nccs1 (stereo not drawn) = ≥ 5 µM
CCC(Sc1ccc2nnc(-c3ccc(OC)cc3)n2n1)C(N)=O (stereo not drawn) = 0.1 to 1 µM
NC(=O)CSc1ccc2nnc(-c3ccncc3)n2n1 = ≥ 5 µM
CCCCC(Sc1ccc2nnc(-c3cccs3)n2n1)C(=O)O (stereo not drawn) = 1 to 5 µM
CCC(Sc1ccc2nnc(-c3ccc(F)cc3)n2n1)C(=O)N1CCCC1 (stereo not drawn) = 0.1 to 1 µM
Cc1ccc(-c2nnc3ccc(SCC(=O)N4CCCCC4)nn23)s1 = 1 to 5 µM

Next molecule, IC50 to be filled in.
IN: So what IC50 did CCC(Sc1ccc2nnc(-c3ccc(F)cc3)n2n1)C(=O)N1CCCCC1 (stereo not drawn) get with LRRK2 (G2019S) (Homo sapiens, UniProt Q5S007, G2019S)?
OUT: 1 to 5 µM

----------
- system: LRRK2 (G2019S) (Homo sapiens, UniProt Q5S007, G2019S)
- Construct: Recombinant GST-LRRK2 (delta970), purified from baculovirus infected insect cells (SF9); GST (N)
- assay_procedure: LRRK2 inhibition, radiometric kinase assay with recombinant GST-LRRK2 (delta970) and peptide substrate
- test_context: GST-LRRK2 (delta970) G2019S 30 nM, ATP ~52 μM (Km), 30 min at 30° C.
pIC50: −log10 of the molar value.
measured_metric: pIC50

Known pIC50 results, listed for orientation:
CCC(Sc1ccc2nnc(-c3cccc(F)c3)n2n1)C(=O)O (centres unmarked) = 6.00 to 7.00
NC(=O)CSc1ccc2nnc(-c3ccco3)n2n1 = 6.00 to 7.00
CC(Sc1ccc2nnc(-c3cccs3)n2n1)C(=O)N1CCC1 (centres unmarked) = > 7.00
Cc1ccc(-c2nnc3ccc(SCC(=O)N4CCCC4)nn23)cc1 = 5.30 to 6.00

Next compound, pIC50 to be filled in.
IN: Tell me the measured pIC50 of `O=C(CSc1ccc2nnc(-c3cccs3)n2n1)N1CCCCC1` , please.
OUT: 6.00 to 7.00

----------
- system: LRRK2 (G2019S) (Homo sapiens, UniProt Q5S007, G2019S)
- Construct: Recombinant GST-LRRK2 (delta970), purified from baculovirus infected insect cells (SF9); GST (N)
- assay_procedure: LRRK2 inhibition, radiometric kinase assay with recombinant GST-LRRK2 (delta970) and peptide substrate
- test_context: GST-LRRK2 (delta970) G2019S 30 nM, ATP ~52 μM (Km), 30 min at 30° C.
measured_metric: IC50

Known IC50 results, listed for orientation:
CCC(Sc1ccc2nnc(-c3cccs3)n2n1)C(=O)N1CCOCC1 (stereo not shown) = 100 to 1000 nM
CCOC(=O)C(CC)Sc1ccc2nnc(-c3ccc(F)cc3)n2n1 (stereo not shown) = ≥ 5000 nM
CCC(Sc1ccc2nnc(-c3ccc(C(F)(F)F)cc3)n2n1)C(=O)N1CCCCC1 (stereo not shown) = 1000 to 5000 nM

Next molecule, IC50 to be filled in.
IN: So what IC50 did CCC(Sc1ccc2nnc(-c3ccsc3)n2n1)C(=O)N1CCCCC1 (stereo not shown) get with LRRK2 (G2019S) (Homo sapiens, UniProt Q5S007, G2019S)?
OUT: 100 to 1000 nM

----------
- system: LRRK2 (G2019S) (Homo sapiens, UniProt Q5S007, G2019S)
- Construct: Recombinant GST-LRRK2 (delta970), purified from baculovirus infected insect cells (SF9); GST (N)
- assay_procedure: LRRK2 inhibition, radiometric kinase assay with recombinant GST-LRRK2 (delta970) and peptide substrate
- test_context: GST-LRRK2 (delta970) G2019S 30 nM, ATP ~52 μM (Km), 30 min at 30° C.
# reported IC50; entries follow

Known IC50 results, listed for orientation:
CCC(Sc1ccc2nnc(-c3ccccc3OC)n2n1)C(N)=O (centres unmarked) = ≥ 5000 nM
NC(=O)CSc1ccc2nnc(-c3ccc(F)cc3)n2n1 = 1000 to 5000 nM
CCC(Sc1ccc2nnc(-c3ccc(C)s3)n2n1)C(=O)O (centres unmarked) = 100 to 1000 nM
CCOC(=O)C(CC)Oc1ccc2nnc(-c3cccs3)n2n1 (centres unmarked) = ≥ 5000 nM
CCC(Sc1ccc2nnc(-c3ccc(Cl)s3)n2n1)C(=O)N1CCCCC1 (centres unmarked) = 100 to 1000 nM
CCC(Sc1ccc2nnc(-c3ccccc3F)n2n1)C(=O)N1CCCCC1 (centres unmarked) = 100 to 1000 nM
CCC(Sc1ccc2nnc(-c3ccc(F)cc3)n2n1)C(=O)Nc1ccccc1C(F)(F)F (centres unmarked) = ≥ 5000 nM
NC(=O)CSc1ccc2nnc(-c3ccsc3)n2n1 = 100 to 1000 nM
O=C(CSc1ccc2nnc(-c3cccs3)n2n1)Nc1nccs1 = 100 to 1000 nM
O=C(O)CSc1ccc2nnc(-c3nccs3)n2n1 = ≥ 5000 nM

IN: Tell me the measured IC50 of CC(Sc1ccc2nnc(-c3nccs3)n2n1)C(=O)O (centres unmarked) , please.
OUT: 100 to 1000 nM

IN: Next: `CC(C)(Sc1ccc2nnc(-c3cccs3)n2n1)C(=O)N1CCCC1`
OUT: 1000 to 5000 nM

IN: Next: `NC(=O)CSc1ccc2nnc(-c3csc4ccccc34)n2n1`
OUT: 1000 to 5000 nM

IN: Next: `NC(=O)CSc1ccc2nnc(C3CCCCC3)n2n1`
OUT: ≥ 5000 nM

IN: Next: `Cc1ccc(-c2nnc3ccc(SCC(=O)O)nn23)cc1`
OUT: 1000 to 5000 nM

Values from patent US9187484B2
